System: 379773-124-R-J2-PDC spheroid viability;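 also: spheroids exposed to drugs for seven days before readout; percent viability relative to DMSO vehicle control taken as 100%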
ASSAY_PROCEDURE: Anticancer human tumor 379773-124-R-J2-PDC patient-derived endometrial carcinoma cell line growth inhibition [POLQ]
RUN_PARAMETERS: second compound 0.0316 µM; first compound 1 µM; active compounds read low; spheroids with HUVEC and MSC
PARAMETER_MEASURED: viability, T/C (%)
Give a bare numeral; the unit % is implied.

Solved entries (count: 2):
O=C(Nc1ccc(O)c(NS(=O)(=O)c2ccc(F)cc2)c1)c1ccc(-c2ccccc2)cc1 + COC1C(OC(N)=O)C(O)C(Oc2ccc3c(O)c(NC(=O)c4ccc(O)c(CC=C(C)C)c4)c(=O)oc3c2C)OC1(C)C; 75
COc1cccc2c1C(=O)c1c(O)c3c(c(O)c1C2=O)CC(O)(C(=O)CO)CC3OC1CC(N)C(O)C(C)O1 (stereo not drawn) + Nc1ccc(C#CCN(C(=O)Cc2ncc(C(F)(F)F)cc2C(F)(F)F)c2ccc(F)cc2)nn1; 12.6

Could you now look at the following molecule, please?
Problem: Return reported viability, T/C. Input molecule: CC1COCCN1c1cc(-c2ccnn2C)c2ccnc(-c3ccn[nH]3)c2n1 (stereo not drawn) + COC1C(OC(N)=O)C(O)C(Oc2ccc3c(O)c(NC(=O)c4ccc(O)c(CC=C(C)C)c4)c(=O)oc3c2C)OC1(C)C
Solution: 9.05

FYI, the data here is from PubChem BioAssay AID1963848.
